Ref: patent US5854252A

Tested on: Micronectriella nivalis
test_summary: MIC by serial dilution, Example 55, Micronectriella nivalis
Format: cell-based
recorded_conditions: microtitre plates, 20° C., 6-8 days
Output t for records whose MIC is lower than 0.8 µg/mL, f for records at or above 0.8 µg/mL.

>>> group_label("COc1ccc(-c2c(Cl)nc3ncnn3c2Cl)cc1OC")
"f"
>>> group_label("Fc1ccc(-c2c(Cl)nc3ncnn3c2Cl)cc1")
"t"
>>> group_label("Cc1ccc(-c2c(Cl)nc3ncnn3c2Cl)cc1C")
"f"
>>> group_label("Cc1ccccc1-c1c(Cl)nc2ncnn2c1Cl")
"f"

Lab note: confirm whether the reported MIC for this molecule is below 0.8 µg/mL, equality not counting. molecule: `Clc1ccc(-c2c(Cl)nc3ncnn3c2Cl)c(Cl)c1`
t

Determine if `Clc1nc2ncnn2c(Cl)c1-c1ccc(Br)cc1` shows MIC strictly lower than 0.8 µg/mL.
f

Input `Clc1ccccc1-c1c(Cl)nc2ncnn2c1Cl` ; condition: MIC strictly below 0.8 µg/mL. Does it hold?
f
